Source: patent EP2402371A1

Listing of entries alongside the reported kon.
Test system: extracellular domain of human GPVI (human) (UniProt Q9HCN6)
Method description: SPR (Biacore 3000), human GPVI immobilised by amine coupling, Fab as analyte
Quantity measured: kon (M⁻¹ s⁻¹)

[[record]]
binder = "humanized anti-GPVI Fab VL1/VH5 (Fab, V domains shown) VH: QVQLQESGPGLVAPSQSLSITCTVSGFSLTGYGVNWVRQPPSRGLEWLGMIWGDGSTDYQSTLKSRLSISKDNSKSQVFLKMNSLTTDDTARYYCARDLPMDEWGQGTSVTVSS VL: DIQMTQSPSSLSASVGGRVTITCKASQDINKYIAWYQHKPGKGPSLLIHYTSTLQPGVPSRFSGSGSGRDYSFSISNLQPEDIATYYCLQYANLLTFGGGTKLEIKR"
quantity_measured = "kon"
value_reported = 81000

[[record]]
binder = "humanized anti-GPVI Fab VL2/VH2 (Fab, V domains shown) VH: QVQLQESGPGLVAPSQSLSITCTVSGFSLTGYGVNWVRQPPSRGLEWLGMIWGDGSTDYQSTLKSRLSISKDNSKSQVFLKMNSLTTDDTARYYCARDLPMDYWGQGTSVTVSS VL: DIQMTQSPSSLSASVGGRVTITCKASQDINKYIAWYQHKPGKGPSLLIHYTSTLQPGVPSRFSGSGSGRDYSFSISNLQPEDIATYYCLQYAHLLTFGGGTKLEIKR"
quantity_measured = "kon"
value_reported = 108000

[[record]]
binder = "humanized anti-GPVI Fab VL1/VH3 (Fab, V domains shown) VH: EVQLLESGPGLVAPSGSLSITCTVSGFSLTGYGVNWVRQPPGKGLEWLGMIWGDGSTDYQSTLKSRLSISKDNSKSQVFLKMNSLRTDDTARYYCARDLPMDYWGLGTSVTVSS VL: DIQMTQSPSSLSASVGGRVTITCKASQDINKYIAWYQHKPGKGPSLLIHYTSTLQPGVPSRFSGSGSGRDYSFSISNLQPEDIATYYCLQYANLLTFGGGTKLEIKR"
quantity_measured = "kon"
value_reported = 148000

[[record]]
binder = "humanized anti-GPVI Fab VL3/VH4 (Fab, V domains shown) VH: QVQLQESGPGLVAPSQSLSITCTVSGFSLTYYGVNWVRQPPSRGLEWLGMIWGDGSTDYQSTLKSRLSISKDNSKSQVFLKMNSLTTDDTARYYCARDLPMDYWGQGTSVTVSS VL: DIQMTQSPSSLSASVGGRVTITCKASQDINKYIAWYQHKPGKGPSLLIHYTSTLQPGVPSRFSGSGSGRDYSFSISNLQPEDIATYYCLQYALLLTFGGGTKLEIKR"
quantity_measured = "kon"
value_reported = 151000

[[record]]
binder = "humanized anti-GPVI Fab VL3/VH2 (Fab, V domains shown) VH: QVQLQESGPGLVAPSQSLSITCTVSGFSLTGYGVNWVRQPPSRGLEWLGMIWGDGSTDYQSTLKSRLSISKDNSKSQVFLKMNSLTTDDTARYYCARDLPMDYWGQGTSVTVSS VL: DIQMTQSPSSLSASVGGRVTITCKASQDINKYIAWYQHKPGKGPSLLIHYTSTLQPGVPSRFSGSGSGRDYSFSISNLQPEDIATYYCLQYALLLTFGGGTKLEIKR"
quantity_measured = "kon"
value_reported = 132000

[[record]]
binder = "humanized anti-GPVI Fab VL1/VH1 (Fab, V domains shown) VH: QVQLQESGPGLVAPSQSLSITCTVSGFSLTGYGVNWVRQPPSRGLEWLGMIWGDGSTDYQSTLKSRLSISKDTSKSQVFLKMNSLTTDDTARYYCARDLPMDYWGQGTSVTVSS VL: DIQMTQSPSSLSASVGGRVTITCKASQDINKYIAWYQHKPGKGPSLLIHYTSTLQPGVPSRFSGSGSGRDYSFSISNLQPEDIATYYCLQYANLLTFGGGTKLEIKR"
quantity_measured = "kon"
value_reported = 111000

[[record]]
binder = "humanized anti-GPVI Fab VL1/VH2 (Fab, V domains shown) VH: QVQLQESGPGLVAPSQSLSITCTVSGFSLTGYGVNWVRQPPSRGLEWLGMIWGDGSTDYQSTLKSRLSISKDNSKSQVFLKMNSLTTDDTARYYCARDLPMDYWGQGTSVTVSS VL: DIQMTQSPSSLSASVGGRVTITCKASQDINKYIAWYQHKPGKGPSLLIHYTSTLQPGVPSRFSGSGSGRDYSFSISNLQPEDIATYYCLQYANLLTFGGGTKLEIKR"
quantity_measured = "kon"
value_reported = 113000

[[record]]
binder = "humanized anti-GPVI Fab VL1/VH4 (Fab, V domains shown) VH: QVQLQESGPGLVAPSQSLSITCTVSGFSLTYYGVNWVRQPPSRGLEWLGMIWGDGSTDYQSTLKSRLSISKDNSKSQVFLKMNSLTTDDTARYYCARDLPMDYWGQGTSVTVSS VL: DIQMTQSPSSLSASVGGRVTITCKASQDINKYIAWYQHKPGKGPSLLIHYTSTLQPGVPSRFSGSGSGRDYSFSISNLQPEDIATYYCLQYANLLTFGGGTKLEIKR"
quantity_measured = "kon"
value_reported = 124000

